Target: T1, human SIRPA v1 on BWZ cells (BWZ-huSIRPA) (human, UniProt P78324 31-504)
T1 construct: also called BWZ cells overexpressing human SIRPA; BWZ-huSIRPA v1 cells
T1 sequence (P78324 31-504): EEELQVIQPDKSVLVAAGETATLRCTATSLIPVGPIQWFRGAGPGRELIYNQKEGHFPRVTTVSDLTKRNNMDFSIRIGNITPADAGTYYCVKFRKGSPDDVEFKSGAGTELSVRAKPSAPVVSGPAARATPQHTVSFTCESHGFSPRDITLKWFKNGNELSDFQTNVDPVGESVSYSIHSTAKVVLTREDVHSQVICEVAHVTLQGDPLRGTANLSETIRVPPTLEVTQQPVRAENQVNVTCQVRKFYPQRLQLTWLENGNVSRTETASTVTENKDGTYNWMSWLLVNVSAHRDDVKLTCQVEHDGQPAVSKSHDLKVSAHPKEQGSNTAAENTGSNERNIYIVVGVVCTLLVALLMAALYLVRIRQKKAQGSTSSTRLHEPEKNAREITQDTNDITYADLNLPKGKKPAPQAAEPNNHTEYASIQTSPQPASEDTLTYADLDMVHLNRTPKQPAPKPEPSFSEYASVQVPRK
Experiment: flow cytometry titration on BWZ-huSIRPA cells, 4 C
Procedure: After addition of fluorescently labeled secondary antibody and brief washing steps, MFI values as a function of titrated antibody concentration was recorded via FACS analysis. […] Receptor bound antibodies were detected by staining cells with anti-human IgG PE secondary antibody. Curves were fit using nonlinear regression analysis with Graphpad Prism 6 software.
METRIC: pEC50
Conceptually, pEC50 converts a concentration in mol/L into minus its log10.

Recorded result, 3F9-17 (antibody, human IgG1, V domains shown, also called mAb 3F9-17) VH: EVQLLESGGGLVQPGGSLRLSCAASGFTFSSYAMSWVRQAPGKGLEWVATISEYGGSYTYYAESVKGRFTISRDNSKNTLYLQMNSLRAEDTAVYYCARPPYDDYYGGFRYWGQGTLVTVSS VL: DIQLTQSPSSLSASVGDRVTITCRASKSVSSGGYSYMHWYQQKPGKAPKLLIYLASNLESGVPSRFSGSGSGTDFTLTISSVQPEDFATYYCQHNRELPWTFGQGTKLEIK , pEC50: 9.21
